- target.under.test: T1, recombinant human CD123-Fc (human, UniProt P26951 19-305)
- T1 construct: not shown: Fc part of CD123-Fc
- T1 sequence: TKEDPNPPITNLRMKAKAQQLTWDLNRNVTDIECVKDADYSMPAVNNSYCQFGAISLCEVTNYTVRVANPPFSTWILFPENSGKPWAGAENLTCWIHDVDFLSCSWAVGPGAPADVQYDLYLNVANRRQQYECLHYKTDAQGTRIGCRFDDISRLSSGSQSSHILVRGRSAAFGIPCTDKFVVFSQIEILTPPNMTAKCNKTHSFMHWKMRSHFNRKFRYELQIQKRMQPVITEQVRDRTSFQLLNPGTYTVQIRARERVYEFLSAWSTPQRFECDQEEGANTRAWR
- method.notes: phage ELISA, A450 target/A450 IgG1-Fc
Consider the following binders; for each one, report its ELISA_avg.
Return type: number; implicit unit ratio.

I would be grateful if you could share the reported ELISA_avg for SEQ ID NO 740 (designed binder) MGSWIEFEDRLEAIEDRLFALGGSEAELAAFEKEIAAFESELQAYKGKGNPEVEWLRQEAAEIRLMLQAYRHN .
21.8

Also SEQ ID NO 735 (designed binder) MGSWVEFVDRLEAIEDRLFALGGSEAELAAFEKEIAAFESELQAYKGKGNPEVEFLRDQAAYIRFMLQAYRHN , if possible.
4.9

Also SEQ ID NO 632 (designed binder) MGSWDEFDARLWAIEERLWALGGSEAELAEFEFMIAAFEDVLQEYKGKGNPEVEALMGEANAIVMELDAYRHN , if possible.
4.3

Also SEQ ID NO 646 (designed binder) MGSWFEFEERLEAIIYRLWALGGSEAELAMFEESIAWFESDLQQYKGKGNPEVEALEYEAMAISKELKAYRHN , if possible.
3.7

Also SEQ ID NO 732 (designed binder) MGSWIEFWDRLEAIEDRLWALGGSEAELAAFEKEIAAFESELQAYKGKGNPEVEELRDEAAWIRDSLQAYRHN , if possible.
4.5

Also SEQ ID NO 696 (designed binder) MGSWWEFESRLDAIFMRLTALGGSEAELAAFEKEIAAFESELQAYKGKGNPEVEDLREDAAFIREFLQAYRHN , if possible.
3.7

Also SEQ ID NO 700 (designed binder) MGSWNEFYDRLSAIYFRLQALGGSEAELAAFEKEIAAFESELQAYKGKGNPEVEHLRWYAADIRMILQAYRHN , if possible.
10.6

Also SEQ ID NO 645 (designed binder) MGSWFEFEERLNAISWRLHALGGSEAELAYFEEDIAWFEDDLQFYKGKGNPEVEALENEAYAIWEELDAYRHN , if possible.
13

Also SEQ ID NO 637 (designed binder) MGSWWEFEDRLWAIEQRLDALGGSEAELAVFENSIAKFEDMLQVYKGKGNPEVEALHEEADAIIWELYAYRHN , if possible.
4.4

Also SEQ ID NO 636 (designed binder) MGSWFEFQWRLEAIEDRLWALGGSEAELAEFETIIAGFEEQLQVYKGKGNPEVEALEEEAMAIQTELHAYRHN , if possible.
3.4

Also SEQ ID NO 716 (designed binder) MGSWYEFDSRLMAIEDRLWALGGSEAELAAFEKEIAAFESELQAYKGKGNPEVEYLRQEAAEIRMILQAYRHN , if possible.
3.2

Also SEQ ID NO 704 (designed binder) MGSWKEFDNRLYAIEDRLRALGGSEAELAAFEKEIAAFESELQAYKGKGNPEVEHLRWYAADIRMILQAYRHN , if possible.
3.9

Also SEQ ID NO 678 (designed binder) MGSWIEFEVRLDAIWDRLFALGGSEAELAAFEKEIAAFESELQAYKGKGNPEVEYLRDEAADIRQSLQAYRHN , if possible.
4.2

Also SEQ ID NO 680 (designed binder) MGSWTEFDMRLDAIWDRLFALGGSEAELAAFEKEIAAFESELQAYKGKGNPEVEELREEAATIRGVLQAYRHN , if possible.
3.1

Also SEQ ID NO 627 (designed binder) MGSWYEFEQRLGAIEERLWALGGSEAELAAFEDIIAYFEYQLQSYKGKGNPEVEALDEEAWAIDDELWAYRHN , if possible.
10.6

Also SEQ ID NO 642 (designed binder) MGSWYEFEDRLAAIEARLWALGGSEAELADFEEEIAYFEHGLQWYKGKGNPEVEALESEAMAIIDELHAYRHN , if possible.
3.8

Also SEQ ID NO 723 (designed binder) MGSWYEFEYRLEAIEDRLWALGGSEAELAAFEKEIAAFESELQAYKGKGNPEVEYLREEAAWIRVWLQAYRHN , if possible.
6.2

Also SEQ ID NO 701 (designed binder) MGSWNEFYDRLSAIYFRLQALGGFEAELAAFEKEIAAFESELQAYKGKGNPEVEHLRWYAADIRMILQAYRHN , if possible.
9
